The measured values listed here are drawn from ChEMBL document CHEMBL4513216.

Recorded INHIBITION, one value per entry.
- System: Plasmodium berghei
- Assay Overview: Screen against P. berghei liver stage (PbLuc), transformed with Luciferase, at 10uM
- Format: functional, HepG2
- Condition Details: tested at 10 uM
The whole screen tested about 69,000 compounds, of which about 8,600 (12%) showed an effect of 50% or more. What follows is part of a selection rich in strong results, with near analogues and random picks from the rest.

Study these solved cases before continuing.
[
  {
    "Compound": "CNC(=O)[C@@H](C1CCCCC1)N1CCC[C@H]1C(=O)NCCN1CCCC1",
    "INHIBITION": "0.112%"
  },
  {
    "Compound": "CC1(C)CN(C(=O)Nc2ccc(Cn3cccn3)cc2)CCO1",
    "INHIBITION": "49.9%"
  },
  {
    "Compound": "O=C(c1cscn1)N1C[C@H]2CN(Cc3nccs3)C[C@H]2C1",
    "INHIBITION": "62.5%"
  },
  {
    "Compound": "Cc1ccc(C(O)CNC(=O)NCc2csc(C)n2)cc1 (stereo unspecified)",
    "INHIBITION": "-34%"
  },
  {
    "Compound": "NC(=O)N1C[C@H]2CN(Cc3nccs3)C[C@H]2C1",
    "INHIBITION": "14.8%"
  }
]

# evaluate next
Lab note: measured INHIBITION of O=C(Nc1ccc(Cn2cccn2)cc1)N1CCC2(CC1)OCCO2 was 41%
